Each recorded value in this set is attributed to PubChem BioAssay.

test: suppressors of polyglutamine aggregation in yeast, 75Q-TubH (AID 1616); conditions: S. cerevisiae 75Q-TubH polyglutamine aggregation suppression; stronger effect = higher value
PROPERTY LABEL: aggregation suppression score
I'd appreciate a reply containing only the number, no unit.

Given the compound CC(=O)OCC(=O)[C@@]12OC3(CCCC3)O[C@@H]1CC1C3CCC4=CC(=O)C=C[C@]4(C)[C@@]3(F)[C@@H](O)C[C@@]12C (stereo not given in full) , write its reported aggregation suppression score.
0.855

Complete the entry with aggregation suppression score for Cn1nnnc1SCC1=C(C(=O)O)N2C(=O)C(NC(=O)C(O)c3ccccc3)C2SC1 (stereo not given)
1.25

Report aggregation suppression score, nothing else, for this compound: CO[C@@]12[C@@H]3NC3CN1C1=C(C(=O)C(N)=C(C)C1=O)[C@@H]2COC(N)=O (stereo not given in full)
1.38

Using the record for C#C[C@]1(O)CCC2C3CCC4=CC(=O)CC[C@@H]4C3CC[C@@]21CC (stereo not given in full) , state its measured aggregation suppression score.
1.03

Supply reported aggregation suppression score belonging to this compound: O=c1[nH]c(=O)n(C2C[C@@H](O)[C@@H](CO)O2)cc1F (stereo not given in full)
1.24

Output measured aggregation suppression score for this item: CC(C)CC(NC(=O)CCN)C(=O)O (stereo not given)
1.32

Provide one value: measured aggregation suppression score of CCC(=O)O[C@]1(C(=O)CCl)[C@@H](C)CC2C3CCC4=CC(=O)C=C[C@]4(C)[C@@]3(F)[C@@H](O)C[C@@]21C (stereo not given in full)
1.08

Look up and state reported aggregation suppression score for Cc1c(C)c2c(c(C)c1O)CCC(C)(CCCC(C)CCCC(C)CCCC(C)C)O2 (stereo not given)
0.219

Identify measured aggregation suppression score corresponding to CC1(C)C2CC[C@]3(C)C(C(=O)C=C4[C@H]5C[C@@](C)(C(=O)O)CC[C@]5(C)CC[C@]43C)[C@@]2(C)CC[C@@H]1O (stereo not given in full)
0.949

// fetch aggregation suppression score given entry CC(C)(S)C(N)C(=O)O (stereo not given)
1.65

###

tested on: R275C/Slo1WT/beta2; assay: modulators of BK channel variants, profiling panel, selectivity assay, cell-based, U2OS BacMam, thallium flux, beta subunits (AID 1259406); conditions: at 30 µM;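 note: initial slope of Thallos dye fluorescence rise after thallium is added; log ratio against the mean of 0.3% DMSO vehicle wells on the same plate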
Active and inactive are the calls of the source.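 How the source made its calls: active means thallium flux through the channel raised or lowered by more than 3 SD from vehicle-only wells, actives on both sides; inactive means the rest.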
PROPERTY LABEL: log fold change Tl+ flux

Name the recorded log fold change Tl+ flux of the item C[C@H]1[C@@H](OC(=O)CCC(=O)O)O[C@@H]2OC3(C)CC[C@H]4[C@H](C)CC[C@@H]1[C@@]24OO3 in your answer.
0.000694 (inactive)

Give recorded log fold change Tl+ flux. COc1nc(C)nc(Cl)c1NC1=NCCN1
-0.0114 (inactive)

Give log fold change Tl+ flux for Cc1ccc(C)n1N(C)c1ccc([N+](=O)[O-])cn1
0.00416 (inactive)

Quickly give me recorded log fold change Tl+ flux for CC(C)(C)OC(=O)N1CCC(c2nc(-c3ccc(Cl)s3)cs2)CC1
0.0374 (inactive)

Supply reported log fold change Tl+ flux belonging to this compound: O=C(c1ccc(OCCN2CCCCC2)cc1)c1c(-c2ccc(O)cc2)sc2cc(O)ccc12
-0.0543 (inactive)

###

test system: R275C/beta1; assay: modulators of BK channel variants, profiling panel, selectivity assay, cell-based, U2OS BacMam, thallium flux, beta subunits (AID 1259406); settings: at 30 µM;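 note: initial slope of Thallos dye fluorescence rise after thallium is added; log ratio against the mean of 0.3% DMSO vehicle wells on the same plate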
# note: exactly 0.01 is not below, so it is label 0; use label 1 for log fold change Tl+ flux strictly under it

Consider C[n+]1ccccc1C=NO . Does its log fold change Tl+ flux lie strictly below 0.01?
label 0

Regarding S=c1sc2c(s1)SCC1(CS2)OCCO1 , kindly confirm whether its log fold change Tl+ flux is beneath 0.01.
label 1

hey, is log fold change Tl+ flux for C=CC[C@@H]1C=C(C)C[C@H](C)C[C@H](OC)[C@H]2O[C@@](O)(C(=O)C(=O)N3CCCC[C@H]3C(=O)O[C@H](/C(C)=C/[C@@H]3CC[C@@H](O)[C@H](OC)C3)[C@H](C)[C@@H](O)CC1=O)[C@H](C)C[C@@H]2OC lower than 0.01 or not?
label 0

Threshold test, log fold change Tl+ flux < 0.01: C=CC1=C(C(=O)O)N2C(=O)[C@@H](NC(=O)C(=NO)c3csc(N)n3)[C@H]2SC1
label 0

Please determine if N#Cc1c(F)cccc1NC1CCN(Cc2ccccc2)CC1 is below 0.01 in terms of log fold change Tl+ flux.
label 1

Problem: For the compound O=c1[nH]cnc2scc(-c3cccs3)c12 , is log fold change Tl+ flux under 0.01?
label 1

For this compound, is log fold change Tl+ flux lower than 0.01? COc1cc(C(=O)Nc2ccccc2C(=O)NCCc2ccccn2)cc(OC)c1OC
label 0

hey, is log fold change Tl+ flux for CCCCC(=O)OC1(C(=O)CO)CCC2C3CCC4=CC(=O)CCC4(C)C3C(O)CC21C (stereo unspecified) lower than 0.01 or not?
label 0

Is it true that log fold change Tl+ flux reported for CCCCCc1c(C)nc(-c2ccccn2)[nH]c1=O is less than 0.01?
label 1

Please indicate whether the reported log fold change Tl+ flux of NCC(O)c1ccc(O)c(O)c1 (stereo unspecified) is strictly below 0.01.
label 0

Dear reviewer, please state whether O=c1[nH]nc(N2CCSCC2)[nH]1 has log fold change Tl+ flux strictly beneath 0.01.
label 1

Bench note: check whether CCOC(=O)Cn1c(=O)ccc2c(C)cc(C)nc21 shows log fold change Tl+ flux below 0.01
label 1

For CN(CCO)CC(O)Cn1cnc2c1c(=O)n(C)c(=O)n2C (stereo unspecified) (tested in a mixture with another compound) , is the recorded log fold change Tl+ flux below the cut-off of 0.01?
label 0

Given the entry Cc1nc2ccc(C(=O)O)cc2[nH]1 , would its reported log fold change Tl+ flux be below 0.01?
label 0

Dear reviewer, please state whether CCOC(=O)c1c(N)n(-c2ccc(Cl)cc2)c2nc3ccccc3nc12 has log fold change Tl+ flux strictly beneath 0.01.
label 1

In plain terms, does Cn1c(C(=O)O)ccc1S(=O)(=O)N(Cc1ccccc1)Cc1ccccc1 come in under 0.01 for log fold change Tl+ flux?
label 0

Input COC(=O)c1cnn(C(=O)Nc2c(C)cccc2C)c1C(OC)OC ; condition: log fold change Tl+ flux strictly below 0.01. Does it hold?
label 1

Strictly below 0.01 in log fold change Tl+ flux? CC(=O)Nc1ccc(OCC(=O)N2CCN(c3ncc(C(F)(F)F)cc3Cl)CC2)cc1
label 1

Please state whether log fold change Tl+ flux is below 0.01 for CC(=O)c1cc2cc(Cl)cc(Cl)c2oc1=O
label 0

Please determine if CN1c2ccccc2C(C)(C)C12C=Cc1cc(Br)cc([N+](=O)[O-])c1O2 (stereo unspecified) is below 0.01 in terms of log fold change Tl+ flux.
label 0

Given the entry O=C(Cn1nnc(N2CCCC2)n1)NN=Cc1ccc(Cl)cc1 , would its reported log fold change Tl+ flux be below 0.01?
label 0

###

test: differential killing of epithelial or mesenchymal cells, primary screen, imaging, PC-3E GFP, TEM4-18 mCherry, co-culture (AID 1345086); settings: imaging cell counts, measured here: epithelial PC-3E GFP cell survival, at 1 µM;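 note: cells exposed to compound for 72 h before imaging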
Would you mind labelling by normalised cell number? At or over 1 is T, under is F.

Reported normalised cell number reaches at least 1 for C[C@H]1O[C@@H](O[C@H]2[C@@H](O)C[C@H](O[C@H]3[C@@H](O)C[C@H](O[C@H]4CC[C@]5(C)C6CC[C@]7(C)[C@@H](C8=CC(=O)OC8)CC[C@]7(O)C6CC[C@@H]5C4)O[C@@H]3C)O[C@@H]2C)C[C@H](O)[C@@H]1O (stereo not given in full) ?
F

Answer whether normalised cell number of CC/C=C1C=C(/C=C/CO)C(=O)O/1 is greater than or equal to 1.
T

API: above_or_equal(metric=normalised cell number, cutoff=1) for item CCC(=O)O[C@H](CC(=O)O)C[N+](C)(C)C
T

Entry CC(C)[C@@H]1CCC(CO)=C[C@@H]1/C=C(\CO)C(=O)O : is its normalised cell number no less than 1?
T

###

experiment: inhibition of 3D7 malaria parasite growth – strain 3D7 (AID 2306);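 note: 0% = DMSO wells and 100% = chloroquine plus artemisinin control wells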; conditions: P. falciparum 3D7 erythrocytic growth, LDH absorbance, 72 h; at 2 µM; stronger effect = higher value
Activity calls are given as the source filed them. How the calls were made is not given here.
PROPERTY LABEL: growth inhibition

Please give the documented growth inhibition of Cc1nn(C)cc1C(C)Nc1nncc(-c2ccc(C(F)(F)F)cc2)n1 (stereo not drawn)
100% (active)

Answer with reported growth inhibition of CN(C)Cc1ccc(-c2ccc(NC(=O)c3ccc4c(=O)n(Cc5ccccc5)cnc4c3)cc2)cc1
100% (active)

Please supply the value of reported growth inhibition for the item Cc1cc(Nc2nc(Nc3cccc(Cl)c3)nc3ccccc23)n[nH]1
103% (active)

Indicate the recorded growth inhibition value for this molecule: Fc1ccc2c(NN=CC=Cc3ccccc3)ccnc2c1
101% (active)

Please give the documented growth inhibition of O=C(NCCN1CCCC1)N1CCCN(c2ncnc3cc(-c4ccc(F)cc4)sc23)CC1
81% (active)

State its growth inhibition for this molecule: COc1ccc2nccc([C@@H](O)CN3CCC(NCc4cc5cccc(OCc6ccccc6)c5[nH]4)CC3)c2c1
101% (active)

Supply reported growth inhibition belonging to this molecule: CN(C)S(=O)(=O)n1ccc2c3c(N)nc(N)nc3ccc21
94% (active)

# return recorded growth inhibition for entry Cc1cc(N(CCN2CCCCC2)CCN2CCCCC2)nc(Nc2ccc(Cl)cc2)n1
101% (active)

Entry CC(C)(CNCc1ccc(F)c(F)c1)c1nc(-c2ccc(Cl)c(O)c2)c(-c2ccncc2)[nH]1 needs its growth inhibition filled in; supply it.
102% (active)

Give the reported value of growth inhibition for this record: O=C(/C=C/c1ccc(Cl)c(Cl)c1)NCCCCCCN1CCCN(C(=O)Nc2ccc(F)c(Cl)c2)CC1
98% (active)

Supply growth inhibition value. Item: c1ccc2c(c1)cc(CNCCCN1CCN(CCCNCc3cc4ccccc4c4ccccc34)CC1)c1ccccc12
101% (active)

Please give measured growth inhibition of the following entry: CC(C)(C)CNCC(C)(C)c1nc(-c2ccc(Cl)c(O)c2)c(-c2ccncc2)[nH]1
101% (active)

# return recorded growth inhibition for input CS(=O)(=O)Cc1ccc(Nc2nccc(N3CCCc4cc(NC(=O)Nc5cccc(C(F)(F)F)c5)ccc43)n2)cc1
102% (active)

Report measured growth inhibition; entry is Cc1nn(-c2ccccc2)c2c1C(c1ccc(C(C)C)cc1)N1C(=N2)N(Cc2ccccc2)c2ccccc21 (stereo not drawn)
95% (active)

Identify the reported growth inhibition for the following entry. Cc1cccc2[nH]c(-c3ccc(-c4cccc(NC(=O)C(=O)c5cccn5C)c4)cc3)nc12
98% (active)

Look up and report measured growth inhibition for this entry: O=C(O)c1ccc(-c2cnc3ccc(NC4CCC(O)CC4)nn23)cc1 (stereo not drawn)
98% (active)

Give the value of growth inhibition reported for the following: CCC(C)NC(=O)Cn1c2ncccc2c(=O)n1-c1ccc(C)cc1 (stereo not drawn)
95% (active)

Provide only the value of recorded growth inhibition for CCN(CC)C(=O)C(=O)c1c[nH]c2ccc(Cl)cc12
96% (active)

For the molecule O=C(NCCN1CCCCC1)c1cccc(Nc2nccc(Nc3ccc(Oc4ccccc4)cc3)n2)c1 , give its reported growth inhibition.
99% (active)

Give a short answer stating reported growth inhibition for Brc1ccsc1-c1nc(NC2CCN(Cc3ccccc3)CC2)no1 .
80% (active)

Provide growth inhibition value for the following molecule: CCNC(=O)Nc1ccc(N(C)c2ccnc(Nc3ccc(CS(C)(=O)=O)cc3)n2)cc1
101% (active)

Indicate its recorded growth inhibition; the molecule in question is O=C(NNC(=O)c1ccc(CN2CCC(c3nc4ccccc4[nH]3)CC2)cc1)Nc1ccc(Oc2ccccc2)cc1
86% (active)

Given the molecule COc1cc(-c2nc(-c3ccccc3)c(-c3ccccc3)[nH]2)cc(OC)c1O , write its reported growth inhibition.
100% (active)

Name the recorded growth inhibition of the molecule listed here: CCCCN(CCCC)C(=Nc1cccc(Cl)c1Cl)Nc1ccc(C#N)cc1O
89% (active)

For CC(Sc1n[nH]c(-c2ccccc2Br)n1)C(=O)Nc1ccc(F)cc1 (stereo not drawn) , write its growth inhibition.
90% (active)

Provide growth inhibition value for the following molecule: O=C(Nc1cccc(-c2nn3ccccc3c2-c2ccnc(Nc3cccc(-c4cnco4)c3)n2)c1)C1CCCCC1
95% (active)

Dear colleague, please send me the reported growth inhibition for CC(NC(=O)c1ccc(O)c(-c2ccc(Cl)c(Cl)c2)c1)C(=O)NC1CCCCC1 (stereo not drawn) when you can.
96% (active)

State, in one line, measured growth inhibition of Cc1sc2nc(CN3CCCC3)nc(-n3c(NCCO)nc4ccccc43)c2c1C
96% (active)
